Molecular target: furin (endogenous protease) in U20S cells (Homo sapiens, UniProt P09958)
Construct: the endogenous protease cleaves GFP; endogenous in cells; host or cells: U2OS cells transduced with a BacMam reporter
Sequence (P09958 108-794): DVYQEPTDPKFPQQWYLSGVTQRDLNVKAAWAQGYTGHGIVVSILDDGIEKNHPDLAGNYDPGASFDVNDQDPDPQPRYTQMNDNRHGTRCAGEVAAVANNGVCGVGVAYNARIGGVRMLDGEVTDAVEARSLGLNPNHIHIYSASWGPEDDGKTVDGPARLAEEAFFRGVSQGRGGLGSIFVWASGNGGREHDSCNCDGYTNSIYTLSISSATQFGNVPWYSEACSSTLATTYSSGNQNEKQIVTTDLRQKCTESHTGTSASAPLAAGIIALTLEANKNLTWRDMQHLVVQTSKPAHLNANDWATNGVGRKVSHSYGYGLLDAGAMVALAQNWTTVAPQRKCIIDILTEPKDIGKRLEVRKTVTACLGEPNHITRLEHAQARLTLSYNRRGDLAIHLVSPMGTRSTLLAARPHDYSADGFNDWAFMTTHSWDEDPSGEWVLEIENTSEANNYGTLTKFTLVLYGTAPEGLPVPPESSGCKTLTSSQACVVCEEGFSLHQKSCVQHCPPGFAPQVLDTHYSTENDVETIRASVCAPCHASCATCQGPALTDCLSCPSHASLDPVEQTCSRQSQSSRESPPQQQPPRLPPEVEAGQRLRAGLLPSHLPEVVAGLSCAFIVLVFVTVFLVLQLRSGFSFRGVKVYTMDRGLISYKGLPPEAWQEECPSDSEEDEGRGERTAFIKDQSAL
Experiment: Furin cell-based assay (image-based, Golgi-targeted GFP with BMP10 furin/PCSK cleavage site)
Details: 24-hour incubation, read-out: furin golgi cell pXC50 (converted)
Structures can show the parent of a compound that is named as a salt.
recorded-endpoint: EC50 (nM)

These solved cases illustrate the format of a correct answer.
Req: Give reported EC50 value for O=C(O)CC1CCN(Cc2cc(Oc3cnc(N4CCN(CC(O)CO)CC4)nc3)nc(-c3cc(Cl)cc(Cl)c3)c2)CC1 (centres unmarked)
Resp: 20

Req: Specify measured EC50 for O=C(O)CC1CCN(Cc2cc(Oc3cnc(N4CCN(CCF)CC4)nc3)nc(-c3cc(Cl)cc(Cl)c3)c2)CC1 .
Resp: 39.8

Req: Find the measured EC50 of CNC(=O)NCC1CCN(Cc2cc(Oc3cnc(N4CCN(C(C)CCO)CC4)nc3)nc(-c3cc(Cl)cc(Cl)c3)c2)CC1 (centres unmarked) and report it.
Resp: 1

Req: Give recorded EC50. CC(CCN1CCN(c2ncc(Oc3cc(CN4CC[C@@H]5[C@H](CC4)[C@H]5NS(C)(=O)=O)cc(-c4cc(Cl)cc(Cl)c4)n3)cn2)CC1)C(=O)O (some centres unmarked)
Resp: 6.31

Req: Specify reported EC50 for the molecule shown: CCN1CCN(c2ccc(Oc3cc(CN4CCC(CC(=O)O)CC4)cc(-c4cc(Cl)cc(Cl)c4)n3)nn2)CC1
Resp: 20

Req: Provide one value: measured EC50 of CNCc1cc(Oc2ccc(N3CCN(CCC(=O)O)CC3)nc2)nc(-c2cc(Cl)cc(Cl)c2)c1 [Example 50, hydrochloride]
Resp: 126

Req: Note down EC50 recorded for CC(CCN1CCN(c2ncc(Oc3cc(CN4CCCC4)cc(-c4cc(Cl)cc(Cl)c4)n3)cn2)CC1)C(=O)O (centres unmarked)
Resp: 50.1

Req: Answer with reported EC50 of O=C(O)CC1CCN(Cc2cc(Oc3cnc(N4CC5CNCC5C4)nc3)nc(-c3cc(Cl)cc(Cl)c3)c2)CC1 (centres unmarked)
Resp: 39.8

1 = COC(=O)NCC1CCN(Cc2cc(Oc3ccc(N4CCN(CCCS(C)(=O)=O)CC4)nc3)nc(-c3cc(Cl)cc(Cl)c3)c2)CC1
2 = CN1CCN(c2ncc(Oc3cc(CN4CCC(P(C)(C)=O)CC4)cc(-c4cc(Cl)cc(Cl)c4)n3)cn2)CC1 [Example 331, hydrochloride]
3 = CC(=O)NCC1CCN(Cc2cc(Oc3cnc(N4CCN(C(C)CC(=O)O)CC4)nc3)nc(-c3cc(Cl)cc(Cl)c3)c2)CC1 (centres unmarked)
4 = Cc1nc(N2CCN(C)CC2)ncc1Oc1nc(-c2cc(Cl)cc(Cl)c2)cc(CN2CCC(CC(=O)O)CC2)c1F
Req: Which order do these items take when sorted by rising EC50? List them. Please respond by ranking the labels in the order requested.
Resp: 1, 3, 2, 4

A = COC(=O)NCC1CCN(Cc2cc(Oc3cnc(N4CCNCC4)nc3)nc(-c3cc(Cl)cc(Cl)c3)c2)CC1 [Example 49, hydrochloride]
B = O=C(O)CC1CCN(Cc2cc(Oc3ccc(N4CCN5CCC4C5)nn3)nc(-c3cc(Cl)cc(Cl)c3)c2)CC1 (centres unmarked)
C = CNC(=O)NCC1CCN(Cc2cc(Oc3cnc(N4CCN(C(C)CCS(C)(=O)=O)CC4)nc3)nc(-c3cc(F)cc(Cl)c3)c2)CC1 (centres unmarked)
Req: Please list these molecules in decreasing order of EC50. Reply format: the labels, ordered as requested.
Resp: B, A, C
(B: 79.4 nM, A: 20 nM, C: 5.01 nM)

I = CC(CC1CCN(Cc2cc(Oc3cnc(N4CCCN(C)CC4)cn3)nc(-c3cc(Cl)cc(Cl)c3)c2)CC1)C(=O)O (centres unmarked)
II = CNC(=O)NCC1CCN(Cc2cc(Oc3cnc(N4CCN(C)CC4)nc3)nc(-c3cc(Cl)cc(Cl)c3)c2)CC1
Req: Kindly identify the item with the lower EC50 figure among these two: I and II Refer to your chosen entry by its label in the reply.
Resp: II

###

Target: Furin (108-574-Tev-Flag-His) enzyme (Homo sapiens, UniProt P09958)
Construct: Furin (108-574-Tev-Flag-His) enzyme was expressed and purified from CHO cells; TEV cleavage site (C); FLAG (C); His (C); made in house; host or cells: CHO cells
Sequence (P09958 108-574): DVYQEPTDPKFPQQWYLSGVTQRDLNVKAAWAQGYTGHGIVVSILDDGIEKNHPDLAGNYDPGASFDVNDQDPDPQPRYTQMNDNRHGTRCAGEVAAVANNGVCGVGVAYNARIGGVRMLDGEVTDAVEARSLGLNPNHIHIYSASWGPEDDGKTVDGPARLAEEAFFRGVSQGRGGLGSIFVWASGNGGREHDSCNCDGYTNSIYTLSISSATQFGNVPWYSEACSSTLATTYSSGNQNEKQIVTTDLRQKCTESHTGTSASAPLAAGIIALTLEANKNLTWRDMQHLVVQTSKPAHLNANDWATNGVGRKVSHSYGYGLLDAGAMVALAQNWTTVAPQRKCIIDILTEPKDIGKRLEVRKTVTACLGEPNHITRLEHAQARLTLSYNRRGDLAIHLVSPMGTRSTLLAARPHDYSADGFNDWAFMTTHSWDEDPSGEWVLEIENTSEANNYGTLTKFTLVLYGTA
Assay: Furin enzyme assay
Format: biochemical
Experimental: Reactions were performed in black 384-well polystyrene low volume plates (Greiner). Furin (108-574-Tev-Flag-His) enzyme was expressed and purified from CHO cells. […] Enzyme inhibition is then quantified using an Envision instrument (PerkinElmer). Data were analyzed using AbaseXE 7.3, utilizing a four-parameter curve fit equation. […] Raw counts obtained from the respective plate reader (Perkin Elmer) were captured for data analysis. […] The results were recorded as pXC50 values (−C in the above equation)
Structures can show the parent of a compound that is named as a salt.
recorded-endpoint: furin enzyme pIC50

Req: Identify measured furin enzyme pIC50 associated with CC(=O)NCC1CCN(Cc2cc(Oc3ccc(N)cc3)cc(-c3cc(Cl)cc(Cl)c3)c2)CC1
Resp: 7.7

Req: Given the molecule O=C(O)[C@H]1[C@@H]2CCN(Cc3cc(Oc4cnc(N5CCN6CCC5C6)nc4)nc(-c4cc(Cl)cc(Cl)c4)c3)CC[C@@H]21 (stereo partly drawn) , write its reported furin enzyme pIC50.
Resp: 9

Req: Find the measured furin enzyme pIC50 of CS(=O)(=O)CCCN1CCN(c2ccc(Oc3cc(CN4CCC(CC(=O)O)CC4)cc(-c4cc(Cl)cc(Cl)c4)n3)cn2)CC1 and report it.
Resp: 8.7

Req: State its furin enzyme pIC50 for this molecule: CP(C)(=O)CC1CCN(Cc2cc(Oc3ccc(N4CCN(CCC(=O)O)CC4)nc3)nc(-c3cc(Cl)cc(Cl)c3)c2)CC1
Resp: 8.1

Req: Please give the documented furin enzyme pIC50 of CC(=O)NCC1CCN(Cc2cc(Oc3cnc(N4CCN(C(C)CC(N)=O)CC4)nc3)nc(-c3cc(Cl)cc(Cl)c3)c2)CC1 (stereo not drawn) [Example 95, hydrochloride]
Resp: 9.9

Req: Given the molecule CC(O)CC1CCN(Cc2cc(Oc3cnc(N4CCN(C)CC4)nc3)nc(-c3cc(Cl)cc(Cl)c3)c2)CC1 (stereo not drawn) , write its reported furin enzyme pIC50.
Resp: 9.1

###

Molecular target: furin (endogenous protease) in U20S cells (Homo sapiens, UniProt P09958)
Construct: the endogenous protease cleaves GFP; endogenous in cells; host or cells: U2OS cells transduced with a BacMam reporter
Test: Furin cell-based assay (image-based, Golgi-targeted GFP with BMP10 furin/PCSK cleavage site);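 note: Read-out is mean GFP fluorescence of Golgi puncta per cell by high-content imaging, retained when furin inhibited, over an eleven-point 0.00017–10 µM series, four-parameter fit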
Settings: 24-hour incubation, read-out: furin golgi cell pXC50 (converted)
Counter-ions that a name gives are not always drawn.
recorded-endpoint: EC50 (nM)

Req: Respond only with EC50 recorded for NS(=O)(=O)CCCN1CCN(c2ccc(Oc3cc(CN4CCC(CC(=O)O)CC4)cc(-c4cc(Cl)cc(Cl)c4)n3)cn2)CC1 [Example 252]
Resp: 31.6

Req: Output EC50 of CN1CCN(c2ncc(Oc3cc(CN4CCC(CC(=O)O)CC4)cc(-c4cc(Cl)cc(Cl)c4)n3)cn2)CC(F)C1 (centres unmarked) [Example 147]
Resp: 31.6

Req: Give EC50 for the following compound: CC(=O)NCC1CCN(Cc2cc(Oc3cnc(N4CCN(CCC5(C(=O)O)CC5)CC4)nc3)nc(-c3cc(Cl)cc(Cl)c3)c2)CC1 [Example 173]
Resp: 1.26

I = O=C(O)CC1CCN(Cc2cc(Oc3ccc(N4CCCNCC4)nc3)nc(-c3cc(Cl)cc(Cl)c3)c2)CC1 [Example 166]
II = CC(=O)NCC1CCN(Cc2cc(Oc3ccc(N4CCN(CCO)CC4)nc3)nc(-c3cc(Cl)cc(Cl)c3)c2)CC1 [Example 180]
Req: Select the item with the higher value of EC50 from the options I and II listed. Answer with the label corresponding to your selection.
Resp: I

a = CC(=O)NCC1CCN(Cc2cc(Oc3cnc(N4CCN(CCC(C)(C)C(=O)O)CC4)nc3)nc(-c3cc(Cl)cc(Cl)c3)c2)CC1 [Example 370, hydrochloride]
b = CC(=O)NCC1CCN(Cc2cc(Oc3ccc(N4CCN(CCS(=O)(=O)O)CC4)nc3)nc(-c3cc(Cl)cc(Cl)c3)c2)CC1 [Example 287]
c = CN1CCN(c2ncc(Oc3cc(CN4CCC(CC(O)C(=O)O)CC4)cc(-c4cc(Cl)cc(Cl)c4)n3)cn2)CC1 (centres unmarked) [Example 139]
d = CC(=O)NCC1CCN(Cc2cc(Oc3ccc(N4CCN([C@H]5C[C@@H](NS(C)(=O)=O)C5)CC4)nc3)nc(-c3cc(Cl)cc(Cl)c3)c2)CC1 [Example 27]
Req: Please put the entries in order of rising EC50. Please list each label once, in the requested order.
Resp: d, a, c, b

a = C[C@]1(O)C[C@@H](N2CCN(c3ncc(Oc4cc(CN5CCC(CC(=O)O)CC5)cc(-c5cc(Cl)cc(Cl)c5)n4)cn3)CC2)C1 [Example 24]
b = CNC(=O)NCC1CCN(Cc2cc(Oc3cnc(N4CCN(C)CC4)cn3)nc(-c3cc(Cl)cc(Cl)c3)c2)CC1 [Example 394]
c = CC(=O)NCC1CCN(Cc2cc(Oc3cnc(N4CCNCC4)c(F)c3)nc(-c3cc(Cl)cc(Cl)c3)c2)CC1 [Example 121]
d = CC(=O)NCC1CCN(Cc2cc(Oc3ccc(N)cc3)cc(-c3cc(Cl)cc(Cl)c3)c2)CC1 [Example 42]
e = CCN(c1cnc(N2CCN(C)CC2)nc1)c1cc(CN2CCC(CC(=O)O)CC2)cc(-c2cc(Cl)cc(Cl)c2)n1 [Example 389]
Req: Please list these in order of increasing EC50. Thank you! The reply should contain the labels ordered as requested.
Resp: b, a, c, e, d
